- Test system: ACHN renal
- experimental_protocol: NCI tumour cell line growth inhibition, 48 h
Give measured TGI for each item. Keep answers brief.

Nc1cc2c(nc3c4ccccc4c(N)cc3[n+]2-c2cccc3ccccc23)c2ccccc12 (tested in a mixture with another compound): 9.21 µM

Can you give me TGI for all of these, one by one?
1. CN(C)CCCN1c2ccccc2CCc2cccc([N+](=O)[O-])c21
2. CCCNC(=O)C(C)(Cl)C(=O)c1ccccc1O (centres undefined)
3. COc1ccc(P2(=S)Oc3ccc(C(c4ccccc4)(c4ccccc4)c4ccccc4)cc3O2)cc1 (centres undefined)
4. O=C1c2ccccc2CCC1C(O)(C(F)(F)F)C(F)(F)F (centres undefined)
5. CC(C)[C@]12O[C@H]1[C@@H]1O[C@]13[C@]1(O[C@H]1C[C@H]1C4=C(CC[C@@]13C)C(=O)OC4)[C@@H]2OC(=O)CN(C)C
6. CC(=O)c1c(P(=O)(OC(C)C)OC(C)C)nn(-c2ccc([N+](=O)[O-])cc2)c1C

result:
53.6 µM
> 100 µM
30.5 µM
> 100 µM
> 100 µM
> 100 µM

For each of the molecules below, note its TGI.
1. Cc1nc2cc(-n3c(-c4ccc(F)cc4)nc4ccccc4c3=O)ccc2n1Cc1ccccc1
2. Cc1ccc(S(=O)(=O)NC(=O)Nc2ccc(C(=O)O)c(O)c2)cc1
3. Cc1ccc(O)c(N=Nc2ccc(S(=O)(=O)O)cc2)n1
4. CCN(CC)c1ccc2cc(-c3nc(-c4ccccc4)n[nH]3)c(=O)oc2c1
5. CC(=O)SSC1(Cl)C(C)(C)C(Cl)(SSC(C)=O)C1(C)C (centres undefined)
6. Cc1cc(C)c(OC(=O)Nc2cccc3ccccc23)c(-c2ccccc2)c1
7. CC1(C)C(=O)/C(=C\c2ccccn2)C[C@]2(C)[C@H]3CC[C@@H]4[C@@H](C(=O)/C=C/c5ccccn5)CC[C@@]4(C)[C@]3(C)CC[C@@H]12
8. O=C(O)c1ccccc1CC1Cc2ccccc2C1

result:
["4.63 µM", "> 100 µM", "> 100 µM", "> 100 µM", "> 100 µM", "94.9 µM", "1.69 µM", "> 100 µM"]

Could you report TGI for every entry in the following list?
1. NC(=O)c1cccc(N2Cc3ccccc3OC3=C2C(=O)c2c(O)ccc(O)c2C3=O)c1
2. OC1CC2CCCN(CCc3c1[nH]c1ccccc31)C2 (centres undefined)
3. Cc1noc(C)c1C1=CCCCc2ccccc21
4. Cc1ccc(/C=C2\N=C(N3CCOCC3)NC2=O)cc1
5. Cn1c(=O)cc(NNc2ccccc2)[nH]c1=O
6. CC(=NC1CCCCC1)c1ccccc1O
7. C[C@]12CC[C@@H]3c4cc(Br)c(O)c(Br)c4CC[C@H]3[C@@H]1CCC2=O

result:
["0.485 µM", "> 100 µM", "> 100 µM", "> 100 µM", "> 100 µM", "> 100 µM", "26.9 µM"]

====

- Tested on: K-562 leukemia
- experimental_protocol: NCI tumour cell line growth inhibition, 48 h
metric_name: TGI

Some molecules with known TGI results, for comparison:
CN(C)c1ccc(/C=C2\Oc3ccccc3C2=O)cc1: > 100 µM
c1ccc(NNN2NC(c3ccccc3)C2c2ccccc2)cc1 (centres undefined): > 100 µM
CC1=C(C(=O)CC(=O)C(=O)Nc2ccccc2C(F)(F)F)Sc2ccccc2N1: > 100 µM
O=C1CCC(O)=C1N=Nc1cc(Cl)cc(Cl)c1: > 100 µM
COc1c2c(cc3nc4ccccc4nc13)CC[C@H](NC(C)=O)c1cc(=O)c(SC)ccc1-2: > 42.2 µM

Batch lookup, TGI per entry.
1. COC1CC(OC2C(C)OC(OC3C(C)OC(OC4C(C)OC(O[C@H]5CC[C@@]6(C)C(=CC[C@]7(O)[C@@H]6C[C@@H](OC(=O)/C=C/c6ccccc6)[C@@]6(C)[C@]7(O)CC[C@@]6(O)C(C)=O)C5)CC4OC)CC3OC)CC2OC)OC(C)C1O (some centres undefined)
2. CN([O-])c1nc(N(C)[O-])nc(N2CCOCC2)n1.CN([O-])c1nc(N(C)[OH2+])nc(N2CCOCC2)n1.[Fe+3]
3. Nc1cc2c(nc3c4ccccc4c(N)cc3[n+]2-c2cccc3ccccc23)c2ccccc12 (tested in a mixture with another compound)

result:
1. > 12.5 µM
2. > 100 µM
3. 4.17 µM

====

- Tested on: OVCAR-8 ovarian
- experimental_protocol: NCI tumour cell line growth inhibition, 48 h; in the data active means GI50 below about 0.43 µM; inactive means the rest
Outcome (select one): label 1 = active, label 0 = inactive

Known results for compounds:
COc1cccc(/C=N/Nc2ncnc3c2cnn3-c2cccc(OC)c2)c1: label 0
CCOC(=O)c1cc2c(c3ccsc13)C1(C)CCC3c4ccc(OC)cc4CCC3C1C2 (stereo not given): label 0
COc1cccc2c1-c1ccccc1C2=O: label 0
CN1CCN(c2ccc3nc(-c4c5cccccc-5[nH]c4=O)[nH]c3c2)CC1: label 0
Cc1c2cnccc2c(C)c2c1c1cc(CO)ccc1n2C: label 1

query: Each compound tested received a call. Report the one for Cc1c(C(N)=O)sc2c1c(=O)n(Cc1ccccc1)c1nnc(SCC(=O)Nc3ccc(Cl)cc3)n21 .
result: label 0

query: Hello, I am checking results. What call was entered for O=C(Nc1cccc(-c2cccc(F)c2)c1)C1CCN(Cc2cccc3cccnc23)CC1 ?
result: label 0

query: # lookup: test call for O=C(N/N=C\c1c(O)ccc2ccccc12)C1CC1
result: label 0

query: I'd appreciate the recorded outcome for O=C1OCC2=C1C(c1cccc(Cl)c1)c1cc3c(cc1N2CCO)OCO3 (stereo not given) from this test.
result: label 0

query: Could you please tell me the result logged for Nc1nc(N)c2cc(CNc3ccc(C(=O)NC(CC(=O)O)C(=O)O)cc3)ccc2n1 (stereo not given) in this assay?
result: label 1

====

- System: SK-MEL-5 melanoma
- experimental_protocol: NCI tumour cell line growth inhibition, 48 h
Please provide measured TGI for the entries that follow.

Example results:
C=CCC12CC(=O)CCC1CC(=O)C2 (stereo not drawn): > 100 µM
O=C(CC1(O)C(=O)Nc2c(Cl)cc(Cl)cc21)c1ccco1 (stereo not drawn): > 100 µM
CCOC(=O)c1cc(NC(=O)N(CCC#N)CCN(C(=O)N[C@@H](Cc2ccccc2)C(=O)N[C@@H](CC(C)C)C(=O)NC)c2ccccc2)ccc1OC: > 100 µM

Give TGI for all molecules that follow.
1. CC(C)(C)OC(=O)Nc1nnc(S(N)(=O)=O)s1
2. COc1ccc(/C=C2/N=C(N/N=C\C(O)C(O)C(O)C(O)CO)NC2=O)cc1 (stereo not drawn)
3. Oc1ccc(N=Cc2ccc(C=Nc3ccc(O)cc3)cc2)cc1
4. Cc1c2cnccc2c(C)c2c1c1cc(CO)ccc1n2C
5. C=C(C)C(=O)OC1CC2(C)OC(=CC2=O)C(C)CC2OC(=O)C(=C)C12 (stereo not drawn)

result:
1: > 100 µM; 2: > 100 µM; 3: 29.8 µM; 4: 1.58 µM; 5: 13.4 µM

====

- Test system: MCF7 breast
- experimental_protocol: NCI tumour cell line growth inhibition, 48 h; in the data active means GI50 below about 0.43 µM; inactive means the rest
Select the matching outcome among active, inactive

COc1ccc(/C=C/C(=O)c2cccc(B(O)O)c2)cc1O: inactive
CCOC(=O)c1cc2c(c3ccsc13)C1(C)CCC3c4ccc(OC)cc4CCC3C1C2 (stereo unspecified): inactive
COc1cccc2c1-c1ccccc1C2=O: inactive
CCCCCCNC(=O)Nc1ccc2cc3ccc(NC(=O)NCCCCCC)cc3nc2c1: active
FC(F)(F)c1ccc(-c2cncn2-c2ccccc2)cc1: inactive

Query compound follows.
query: Please indicate how the test categorized Cc1c2cnccc2c(C)c2c1c1cc(CO)ccc1n2C .
result: active

====

- System: SNB-78 CNS
- experimental_protocol: NCI tumour cell line growth inhibition, 48 h
metric_name: TGI

CCCNC(=O)C(C)(Cl)C(=O)c1ccccc1O (centres undefined): > 100 µM

Quick one: give me TGI for each item below, same order please.
1. COc1cccc(C2C(C(=O)O)=C(CO)Oc3cc4c(cc32)OCO4)c1OC (centres undefined)
2. CCCCCCC[C@@H](O)CC(=O)NC(CC(C)C)C(=O)NC(CCC(=O)O)C(=O)NC1C(=O)NC(C(C)C)C(=O)NC(CC(C)C)C(=O)NC(CO)C(=O)NC(CC(C)C)C(=O)NC(CO)C(=O)NC(C(C)CC)C(=O)OC1C (some centres undefined)
3. O=C1CCC(O)=C1N=Nc1cc(Cl)cc(Cl)c1
4. CC(=O)c1c(P(=O)(OC(C)C)OC(C)C)nn(-c2ccc([N+](=O)[O-])cc2)c1C
5. CC1=C(C(=O)CC(=O)C(=O)Nc2ccccc2C(F)(F)F)Sc2ccccc2N1
6. C/C(O)=C/c1nc2ccccc2[nH]1
7. Cc1cc(O)c2c3c1C(=O)Oc1c(CO)c(O)c(C(=O)O)c(c1O3)C=NN=Cc1c3c(c(CO)c(O)c1C(=O)O)OC(=O)c1c(C)cc(O)c(c1O3)C=NN=C2

result:
> 100 µM
34.3 µM
> 100 µM
> 100 µM
> 100 µM
> 100 µM
> 100 µM

query: Recorded TGI of C[C@@]1(CO)[C@H](O)CC[C@@]2(C)[C@H]1CC[C@H]1C[C@@H]3C[C@@]12CC[C@@]3(O)COC(=O)CN , please.
result: > 500 µM

Attribution: PubChem BioAssay (NCI)
